Tested on: Candida pseudotropicalis K. 11658
Test: In vitro antifungal activity, microbroth dilution MIC
Type: cell-based
Settings: C. pseudotropicalis K. 11658, RPMI-1640, 35° C., 4 to 48 hours
Lab note: anything with Minimal inhibitory concentration (MIC) at or over 20 µg/mL counts as fulfilled; the rest go in not fulfilled.

- compound: "FC(=Cc1ccccc1)OCC1COC(Cn2cncn2)(c2ccc(Cl)cc2Cl)O1 (mixture of isomers) [Ex. 69]"
  labelValue: "not fulfilled"
- compound: "FC(=Cc1ccccc1)OCC1COC(Cn2ccnc2)(c2ccc(F)cc2F)O1 (mixture of isomers) [Ex. 36]"
  labelValue: "fulfilled"
- compound: "FC(OCC1COC(Cn2ccnc2)(c2ccc(Cl)cc2Cl)O1)=C(c1ccc(C(F)(F)F)cc1)C(F)(F)F (centres unmarked) [Ex. 25]"
  labelValue: "fulfilled"
- compound: "CCc1ccc(C=C(F)OCC2COC(Cn3ccnc3)(c3ccc(F)cc3F)O2)cc1 (mixture of isomers) [Ex. 39]"
  labelValue: "not fulfilled"
- compound: "COc1ccc(C(=C(F)OCC2COC(Cn3ccnc3)(c3ccc(F)cc3F)O2)C(F)(F)F)cc1 (mixture of isomers) [Ex. 61]"
  labelValue: "fulfilled"
- compound: "FC(OCC1COC(Cn2ccnc2)(c2ccc(Cl)cc2Cl)O1)=C(c1cc(Cl)cc(Cl)c1)C(F)(F)F (mixture of isomers) [Ex. 34]"
  labelValue: "not fulfilled"
- compound: "CCc1ccc(C=C(F)OCC2COC(Cn3ccnc3)(c3ccc(Cl)cc3Cl)O2)cc1 (centres unmarked) [Ex. 4]"
  labelValue: "not fulfilled"
- compound: "FC(OCC1COC(Cn2ccnc2)(c2ccc(F)cc2F)O1)=C(c1cccc(Cl)c1)C(F)(F)F (mixture of isomers) [Ex. 64]"
  labelValue: "fulfilled"
- compound: "CC(C)Oc1cccc(C=C(F)OCC2COC(Cn3ccnc3)(c3ccc(F)cc3F)O2)c1 (mixture of isomers) [Ex. 45]"
  labelValue: "not fulfilled"
- compound: "FC(OCC1COC(Cn2ccnc2)(c2ccc(Cl)cc2Cl)O1)=C(c1cccc(F)c1)C(F)(F)F (mixture of isomers) [Ex. 32]"
  labelValue: "fulfilled"
- compound: "Cc1cc(C)c(C=C(F)OCC2COC(Cn3ccnc3)(c3ccc(F)cc3F)O2)cc1C (mixture of isomers) [Ex. 42]"
  labelValue: "fulfilled"
- compound: "Cc1ccc(C(=C(F)OCC2COC(Cn3ccnc3)(c3ccc(F)cc3F)O2)C(F)(F)F)cc1C (mixture of isomers) [Ex. 56]"
  labelValue: "fulfilled"
- compound: "FC(=Cc1ccc(F)cc1)OCC1COC(Cn2ccnc2)(c2ccc(Cl)cc2Cl)O1 (centres unmarked) [Ex. 16]"
  labelValue: "not fulfilled"
- compound: "CCc1ccc(C(=C(F)OCC2COC(Cn3ccnc3)(c3ccc(F)cc3F)O2)C(F)(F)F)cc1 (mixture of isomers) [Ex. 55]"
  labelValue: "fulfilled"
- compound: "Cc1ccc(C=C(F)OCC2COC(Cn3ccnc3)(c3ccc(F)cc3F)O2)cc1C (mixture of isomers) [Ex. 40]"
  labelValue: "fulfilled"
- compound: "Cc1cc(C)cc(C=C(F)OCC2COC(Cn3ccnc3)(c3ccc(F)cc3F)O2)c1 (mixture of isomers) [Ex. 41]"
  labelValue: "fulfilled"
- compound: "FC(=Cc1ccccc1)OC[C@H]1CO[C@](Cn2ccnc2)(c2ccc(Cl)cc2Cl)O1 (relative stereo) [Example 1]"
  labelValue: "not fulfilled"
- compound: "COc1ccc(C(=C(F)OCC2COC(Cn3ccnc3)(c3ccc(Cl)cc3Cl)O2)C(F)(F)F)cc1 (centres unmarked) [Ex. 27]"
  labelValue: "fulfilled"
- compound: "CCc1ccc(C(=C(F)OCC2COC(Cn3ccnc3)(c3ccc(Cl)cc3Cl)O2)C(F)(F)F)cc1 (centres unmarked) [Ex. 22]"
  labelValue: "fulfilled"
- compound: "FC(OCC1COC(Cn2ccnc2)(c2ccc(F)cc2F)O1)=C(c1ccc(C(F)(F)F)cc1)C(F)(F)F (mixture of isomers) [Ex. 59]"
  labelValue: "fulfilled"
- compound: "Cc1ccc(C=C(F)OCC2COC(Cn3ccnc3)(c3ccc(Cl)cc3Cl)O2)cc1C (centres unmarked) [Ex. 5]"
  labelValue: "not fulfilled"
- compound: "FC(=Cc1ccc(F)cc1)OCC1COC(Cn2ccnc2)(c2ccc(F)cc2F)O1 (mixture of isomers) [Ex. 49]"
  labelValue: "not fulfilled"
- compound: "FC(OCC1COC(Cn2ccnc2)(c2ccc(F)cc2F)O1)=C(c1ccc2c(c1)OCO2)C(F)(F)F (mixture of isomers) [Ex. 62]"
  labelValue: "fulfilled"
- compound: "FC(OCC1COC(Cn2ccnc2)(c2ccc(Cl)cc2Cl)O1)=C(c1ccc(F)cc1)C(F)(F)F (mixture of isomers) [Ex. 33]"
  labelValue: "fulfilled"
- compound: "FC(OCC1COC(Cn2ccnc2)(c2ccc(F)cc2F)O1)=C(c1cccc(F)c1)C(F)(F)F (mixture of isomers) [Ex. 65]"
  labelValue: "fulfilled"
- compound: "FC(OCC1COC(Cn2ccnc2)(c2ccc(Cl)cc2Cl)O1)=C(c1ccc(Oc2ccccc2)cc1)C(F)(F)F (centres unmarked) [Ex. 29]"
  labelValue: "fulfilled"
- compound: "FC(OCC1COC(Cn2ccnc2)(c2ccc(F)cc2F)O1)=C(c1cc(Cl)cc(Cl)c1)C(F)(F)F (mixture of isomers) [Ex. 67]"
  labelValue: "fulfilled"
- compound: "CC(C)Oc1cccc(C=C(F)OCC2COC(Cn3ccnc3)(c3ccc(Cl)cc3Cl)O2)c1 (centres unmarked) [Ex. 11]"
  labelValue: "not fulfilled"
- compound: "CCOc1ccc(C=C(F)OCC2COC(Cn3ccnc3)(c3ccc(Cl)cc3Cl)O2)cc1 (centres unmarked) [Ex. 10]"
  labelValue: "not fulfilled"
